Recorded IC50 for the following molecules
Target: C-X-C chemokine receptor type 6 (Homo sapiens) (UniProt O00574)
Sequence (O00574 whole entry, looked up): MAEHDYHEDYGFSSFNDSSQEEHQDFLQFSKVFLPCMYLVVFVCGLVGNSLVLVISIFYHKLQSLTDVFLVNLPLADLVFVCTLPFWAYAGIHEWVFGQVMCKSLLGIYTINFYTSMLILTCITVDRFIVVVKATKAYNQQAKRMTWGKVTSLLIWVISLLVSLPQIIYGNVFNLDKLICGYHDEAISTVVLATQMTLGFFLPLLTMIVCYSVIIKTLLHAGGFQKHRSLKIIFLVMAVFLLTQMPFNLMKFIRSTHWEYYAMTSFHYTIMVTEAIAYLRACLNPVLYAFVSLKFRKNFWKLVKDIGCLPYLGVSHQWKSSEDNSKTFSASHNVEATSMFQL
Test: potency against CXCR6 with APJ panel – cell-based, beta-arrestin, DiscoveRx, uHTS hits, dose response (AID 624129)
Conditions: CXCR6 beta-arrestin (DiscoveRx) antagonist cell assay, CXCR6, run 1, dose range 2

- molecule: "CC1(C)CC(=O)C(C=Nc2ccc(C(=O)c3ccccc3)cc2N=CC2=C(O)CC(C)(C)CC2=O)=C(O)C1"
  IC50, µM: 0.963
- molecule: "O=C(NCc1cccnc1)/C(=C\\c1ccc(-c2cccc(Cl)c2)o1)S(=O)(=O)c1ccccc1"
  IC50, µM: 11.9
- molecule: "O=C1c2cccc3c([N+](=O)[O-])ccc(c23)C(=O)N1c1ccc(Cl)cn1"
  IC50, µM: 17.7
- molecule: "Cc1ccccc1CS(=O)(=O)c1nnc([C@H](Cc2ccccc2)NC(=O)OC(C)(C)C)o1"
  IC50, µM: 16
- molecule: "C=CCN(CC=C)C(=S)NC(=O)c1ccc(C)c(Br)c1"
  IC50, µM: 11.7
- molecule: "COC(=O)c1ccc(NC(=O)c2nc(S(=O)(=O)Cc3cccc(C)c3)ncc2Cl)cc1"
  IC50, µM: 15.4
- molecule: "O=C1CC(Sc2nnnn2-c2ccccc2)C(=O)N1c1cccc(Cl)c1 (stereo not drawn)"
  IC50, µM: 11.7
- molecule: "O=C(NNc1ccc([N+](=O)[O-])cc1[N+](=O)[O-])c1ccco1"
  IC50, µM: 30.4

// provenance: PubChem BioAssay AID624129
